Molecular target: Farnesyl-protein transferase (FPTase)
Assay: In vitro inhibition of ras farnesyl transferase (Ras-CVLS, [3H]FPP)
Conditions: Ras-CVLS 3.5 μM, 0.25 μM [3H]FPP; partially purified bovine or recombinant human enzyme; read-out: IC50 (concentration of the test compound which gives 50% inhibition of FPTase)
Where a name gives a salt, the structure may show the parent alone.
# IC50 annotations
READOUT_KIND: IC50 (nM)

COMPOUND: CCCOCC[C@H]1CN(C(=O)c2cccc3cccnc23)CCN1C[C@@H](N)CS [Example 15, trihydrochloride]
READOUT_KIND: IC50
REPORTED: 6
//
COMPOUND: N[C@@H](CS)CN1CCN(C(=O)c2cccc3ccccc23)C[C@@H]1CCOCc1cccnc1 [Example 14, trihydrochloride]
READOUT_KIND: IC50
REPORTED: 1
//
COMPOUND: CSCC[C@H]1CN(C(=O)c2cccc(C)c2C)CCN1C[C@@H](N)CS [Example 8, dihydrochloride]
READOUT_KIND: IC50
REPORTED: 11
//
COMPOUND: CCCC[C@H]1CN(C(=O)c2cccc3cccnc23)CCN1C[C@@H](N)CS [Example 19, trihydrochloride]
READOUT_KIND: IC50
REPORTED: 5
//
COMPOUND: CCCC[C@H]1CN(C(=O)c2cccc3c2OCC3)CCN1C[C@@H](N)CS [Example 17, dihydrochloride]
READOUT_KIND: IC50
REPORTED: 6
//
COMPOUND: Cc1cccc(C(=O)N2CCN(C[C@@H](N)CS)[C@@H](Cc3ccccc3)C2)c1C [Example 6, dihydrochloride]
READOUT_KIND: IC50
REPORTED: 4
//
COMPOUND: COC(=O)C1CN(C[C@@H](N)CS)CCN1Cc1cccc2ccccc12 (stereo partly shown) [Example 31, hydrochloride]
READOUT_KIND: IC50
REPORTED: 2.9
